Answer each item with its documented Ki Ratio (ER-α/ER-β).
Test System: ERβ ligand binding domain (Homo sapiens)
Sequence (Q92731 whole entry, looked up, the tested form may be a part): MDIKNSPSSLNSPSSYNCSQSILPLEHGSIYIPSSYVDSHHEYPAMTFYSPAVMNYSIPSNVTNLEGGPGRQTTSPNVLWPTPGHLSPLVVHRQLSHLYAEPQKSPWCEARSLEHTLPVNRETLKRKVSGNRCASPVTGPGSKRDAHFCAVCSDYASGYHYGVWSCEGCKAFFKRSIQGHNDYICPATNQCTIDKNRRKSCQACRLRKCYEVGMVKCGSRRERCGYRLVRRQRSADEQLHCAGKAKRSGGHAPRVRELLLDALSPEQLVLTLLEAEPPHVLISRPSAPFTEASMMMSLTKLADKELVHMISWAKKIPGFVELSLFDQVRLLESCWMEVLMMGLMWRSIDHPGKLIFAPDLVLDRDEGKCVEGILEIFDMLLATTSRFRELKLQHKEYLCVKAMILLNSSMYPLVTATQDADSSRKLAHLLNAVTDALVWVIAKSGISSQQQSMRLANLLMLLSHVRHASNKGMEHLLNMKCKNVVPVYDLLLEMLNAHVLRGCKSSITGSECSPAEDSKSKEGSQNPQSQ
Method Summary: Competitive [3H]-estradiol binding assay, ER-β (Example 21)

QUERY: Return reported Ki Ratio (ER-α/ER-β); argument: O=c1c2ccc(O)cc2c(I)cn1-c1ccc(O)cc1 [12h]
RESULT: 22

QUERY: Give its Ki Ratio (ER-α/ER-β) value. Item: C=Cc1cn(-c2ccc(O)c(F)c2)c(=O)c2c(O)cc(O)cc12 [15c]
RESULT: 51.7

QUERY: I'd like to know its Ki Ratio (ER-α/ER-β). The compound in question is O=c1c2c(O)cc(O)cc2ccn1-c1ccc(O)c(F)c1 [12s]
RESULT: 25

QUERY: Name the reported Ki Ratio (ER-α/ER-β) value associated with the compound O=c1c2ccc(O)cc2c(Cl)cn1-c1ccc(O)cc1 [12f]
RESULT: 61

QUERY: What does the data say about its Ki Ratio (ER-α/ER-β)? Entry: C/C=C/c1cn(-c2ccc(O)cc2)c(=O)c2c(O)cc(O)cc12 [15i]
RESULT: 61.4

QUERY: Would you mind telling me what Ki Ratio (ER-α/ER-β) value was observed for O=c1c2ccc(O)cc2c(Br)cn1-c1ccc(O)cc1 [12b] ?
RESULT: 20

QUERY: For the compound shown here, O=c1c2c(O)cc(O)cc2c(-c2ccccc2)cn1-c1ccc(O)cc1 [15h] , give the reported Ki Ratio (ER-α/ER-β).
RESULT: 41.1

QUERY: Data request, read-out Ki Ratio (ER-α/ER-β), for O=c1c2c(O)cc(O)cc2c(Cl)cn1-c1ccc(O)cc1 [12y]
RESULT: 11

QUERY: GET /values?readout=Ki Ratio (ER-α/ER-β)&item= Oc1ccc(-n2ccc3cc(O)cc(O)c3c2=S)cc1 [12p]
RESULT: 8

QUERY: Which Ki Ratio (ER-α/ER-β) value belongs to COc1ccc(-c2cn(-c3ccc(O)cc3)c(=O)c3ccc(O)cc23)cc1 [15b] ?
RESULT: 8.3

QUERY: # get_value(readout='Ki Ratio (ER-α/ER-β)', item= O=c1c2c(O)cc(O)cc2c(Br)cn1-c1ccc(O)c(F)c1 [12z] )
RESULT: 12

Cited source for all entries: patent US9604931B2
